assayInfo: growth inhibition, single agent and combos, cell-based, chromothripsis tumors, cisplatin or BGB combos (AID 1671450);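 note: cells exposed to compound for four days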
conditionsUsed: HDN33 neuroblastoma cells, cisplatin combo, at 5 µM, stronger effect = higher value
Values of inhibition greater than or equal to 50% map to True; values below map to False.

Worked examples, 6 compounds total:
-- ask Could you verify whether the entry "CC(=O)Nc1ccc(C(=O)Nc2ccccc2N)cc1" shows inhibition of no less than 50%?
-- reply True

-- ask Could you verify whether the entry "Cc1cn([C@@H]2O[C@H](CO)[C@@H](O)[C@@H]2F)c(=O)[nH]c1=O" shows inhibition of no less than 50%?
-- reply False

-- ask Could you verify whether the entry "Cc1ccc2nc(NCCN)c3ncc(C)n3c2c1" shows inhibition of no less than 50%?
-- reply True

-- ask Could you verify whether the entry "Nc1nc(OCc2cc(Br)cs2)c2[nH]cnc2n1" shows inhibition of no less than 50%?
-- reply False

-- ask Could you verify whether the entry "C=C1[C@H](CO)[C@@H](O)C[C@@H]1n1cnc2c(=O)[nH]c(N)nc21" shows inhibition of no less than 50%?
-- reply False

-- ask Could you verify whether the entry "CN(C)c1ccc(C(=O)NCCCCCCC(=O)NO)cc1" shows inhibition of no less than 50%?
-- reply True

Next:
-- ask Could you verify whether the entry "O=c1cc(N2CCOCC2)oc2c1ccc1ccccc12" shows inhibition of no less than 50%?
-- reply False

-- ask Could you verify whether the entry "Cc1ccc([N+](=O)[O-])cc1S(=O)(=O)N(C)/N=C/c1cnc2ccc(Br)cn12" shows inhibition of no less than 50%?
-- reply True

-- ask Could you verify whether the entry "CO[C@H]1/C=C/O[C@@]2(C)Oc3c(C)c(O)c4c(O)c(c(/C=N\N5CCN(C6CCCC6)CC5)c(O)c4c3C2=O)NC(=O)/C(C)=C\C=C\[C@H](C)[C@H](O)[C@@H](C)[C@@H](O)[C@@H](C)[C@H](OC(C)=O)[C@@H]1C" shows inhibition of no less than 50%?
-- reply False

Sourced from PubChem BioAssay
